procedure-summary: Plasma concentration in C57Bl/6 mouse at 50 mg/kg, ip administered for 1 day and measured 8 hr post last dose by LC-MS/MS analysis
Type: ADME, organism-based
measured-property: concentration at 24 h (µM)
# output: bare number, implied unit µM

Query: Determine from records and report concentration at 24 h for "CCOc1cc(N2CCC(O)CC2)ccc1Nc1ncc2c(n1)N(C)c1ccccc1C(=O)N2C"
Reply: 10.2

----------
test-target: Epidermal growth factor receptor (Homo sapiens, UniProt P00533)
Sequence (P00533 whole entry): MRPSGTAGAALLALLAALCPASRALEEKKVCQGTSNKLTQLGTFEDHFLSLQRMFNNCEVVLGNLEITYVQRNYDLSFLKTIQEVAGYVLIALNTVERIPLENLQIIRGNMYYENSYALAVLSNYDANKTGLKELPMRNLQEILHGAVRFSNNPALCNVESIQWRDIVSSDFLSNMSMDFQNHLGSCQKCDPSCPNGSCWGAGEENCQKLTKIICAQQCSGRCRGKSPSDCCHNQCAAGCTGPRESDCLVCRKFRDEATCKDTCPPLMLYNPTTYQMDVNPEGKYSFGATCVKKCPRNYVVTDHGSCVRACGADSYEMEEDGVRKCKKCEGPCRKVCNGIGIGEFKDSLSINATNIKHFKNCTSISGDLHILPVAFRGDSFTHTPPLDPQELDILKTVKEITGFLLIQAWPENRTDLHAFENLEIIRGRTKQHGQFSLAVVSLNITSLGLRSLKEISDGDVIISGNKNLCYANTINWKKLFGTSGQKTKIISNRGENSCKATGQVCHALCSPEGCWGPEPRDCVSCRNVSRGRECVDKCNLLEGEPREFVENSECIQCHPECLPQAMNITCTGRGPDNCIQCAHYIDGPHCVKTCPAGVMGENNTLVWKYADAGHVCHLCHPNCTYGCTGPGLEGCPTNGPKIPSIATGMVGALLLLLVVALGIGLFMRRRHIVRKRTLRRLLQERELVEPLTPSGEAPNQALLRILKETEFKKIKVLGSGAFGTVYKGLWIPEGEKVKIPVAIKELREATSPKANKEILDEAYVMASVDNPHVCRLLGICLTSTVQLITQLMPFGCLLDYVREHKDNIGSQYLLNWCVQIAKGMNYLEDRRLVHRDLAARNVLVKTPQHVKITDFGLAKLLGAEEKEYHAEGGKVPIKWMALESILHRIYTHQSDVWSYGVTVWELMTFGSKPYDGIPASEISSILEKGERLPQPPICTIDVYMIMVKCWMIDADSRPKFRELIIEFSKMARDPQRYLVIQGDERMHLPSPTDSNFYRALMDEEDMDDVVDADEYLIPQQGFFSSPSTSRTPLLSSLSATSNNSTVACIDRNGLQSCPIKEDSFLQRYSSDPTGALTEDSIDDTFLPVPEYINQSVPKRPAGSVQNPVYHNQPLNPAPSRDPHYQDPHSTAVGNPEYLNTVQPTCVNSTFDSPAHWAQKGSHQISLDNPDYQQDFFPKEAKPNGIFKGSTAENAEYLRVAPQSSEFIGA
procedure-summary: Inhibition of EGFR in human HeLa cells lysate pre incubated for 15 mins followed by ADP acyl phosphate probe addition and measured after 10 mins by LC-MS/MS analysis
Format: subcellular
measured-property: IC50

Query: Give Epidermal growth factor receptor (Homo sapiens, UniProt P00533) IC50 for the following molecule: "CCOc1cc(N2CCC(O)CC2)ccc1Nc1ncc2c(n1)N(C)c1ccccc1C(=O)N2C"
Reply: > 50 µM
